Study system: TBK1 (Homo sapiens (Human))
Sequence (Q9UHD2 whole entry): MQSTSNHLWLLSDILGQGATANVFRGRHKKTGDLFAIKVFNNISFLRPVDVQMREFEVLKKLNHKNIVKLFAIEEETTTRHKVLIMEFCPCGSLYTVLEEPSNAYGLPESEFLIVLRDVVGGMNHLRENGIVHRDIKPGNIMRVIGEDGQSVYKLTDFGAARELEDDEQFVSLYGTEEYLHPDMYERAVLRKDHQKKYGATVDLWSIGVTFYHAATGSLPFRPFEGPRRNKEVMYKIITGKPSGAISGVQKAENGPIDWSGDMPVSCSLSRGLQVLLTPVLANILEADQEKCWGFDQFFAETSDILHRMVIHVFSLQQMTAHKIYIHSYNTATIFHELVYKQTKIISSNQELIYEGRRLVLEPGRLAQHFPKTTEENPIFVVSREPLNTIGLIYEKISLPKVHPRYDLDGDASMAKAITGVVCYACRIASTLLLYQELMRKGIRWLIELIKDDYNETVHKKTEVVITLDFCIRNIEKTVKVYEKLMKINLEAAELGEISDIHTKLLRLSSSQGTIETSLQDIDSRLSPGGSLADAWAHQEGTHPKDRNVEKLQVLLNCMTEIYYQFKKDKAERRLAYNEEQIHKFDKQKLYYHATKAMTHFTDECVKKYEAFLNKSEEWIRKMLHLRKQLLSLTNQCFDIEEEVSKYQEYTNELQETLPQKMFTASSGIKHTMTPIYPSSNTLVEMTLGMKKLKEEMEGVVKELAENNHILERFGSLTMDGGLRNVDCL
Experiment description: TBK1 TR-FRET enzymatic assay;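 note: phosphorylation of a biotinylated Ser/Thr peptide by purified full-length recombinant TBK1, read by TR-FRET after 240 min at 25 °C, IC50 is the geometric mean of at least four runs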
Measurement parameters: TBK1 IC50
Here the recorded IC50 is given for each entry.
Provide only the numeric value, understood in nM.

A selection of reference data follows.
Task: // lookup IC50 for N#Cc1cc(-c2ncnc(Nc3ccc(N4CCN(C5COC5)CC4)cc3)n2)ccc1OC1CC2CCC(C1)N2C(=O)CO (stereo not shown)
Result: 92

Task: Same for C[C@H](O)C(=O)N1CC[C@H](Oc2ccc(-c3ncnc(Nc4ccc(N5C6COCC5C6)cc4)n3)cc2C#N)[C@H](F)C1
Result: 3

Task: Same for N#Cc1cc(-c2ncnc(Nc3ccc(N4CCN(C5COC5)CC4)cc3)n2)ccc1OC1CC[S+]([O-])CC1 (single isomer, unassigned) [Example 25]
Result: 21

Turning now to a further molecule:
Task: // lookup IC50 for N#Cc1cc(-c2ncnc(Nc3ccc(N4CCN(C5COC5)CC4)cc3)n2)ccc1OC1CC[S+]([O-])CC1 (single isomer, unassigned) [Example 26]
Result: 6
